Provide the reported relative viability of each item.
Test system: NCI-H1355
assay.explanation: relative viability (nuclei count vs DMSO), 5 days (fraction); higher = more cells survive
particulars: first compound 0.3162 µM
Give bare numbers.

* NC(=O)Nc1cc(-c2cccc(F)c2)sc1C(=O)N[C@H]1CCCNC1 [AZD7762] + CC(C)C[C@H](NC(=O)[C@H](Cc1ccccc1)NC(=O)c1cnccn1)B(O)O [Bortezomib] (partner 0.002 µM) | 1.27

For each of the items listed, what is its relative viability?
1. NC(=O)Nc1cc(-c2cccc(F)c2)sc1C(=O)N[C@H]1CCCNC1 [AZD7762] + Nc1ncn([C@H]2C[C@H](O)[C@@H](CO)O2)c(=O)n1 [Decitabine] (partner 2 µM)
2. NC(=O)Nc1cc(-c2cccc(F)c2)sc1C(=O)N[C@H]1CCCNC1 [AZD7762] + C[C@]1(O)C[C@@H](c2nc(-c3ccc4ccc(-c5ccccc5)nc4c3)c3c(N)nccn32)C1 [Linsitinib] (partner 1 µM)
3. NC(=O)Nc1cc(-c2cccc(F)c2)sc1C(=O)N[C@H]1CCCNC1 [AZD7762] + C[C@@H](Oc1cc(-c2cnn(C3CCNCC3)c2)cnc1N)c1c(Cl)ccc(F)c1Cl [Crizotinib] (partner 1 µM)

1. 0.407
2. 0.859
3. 1.14

---

System: NCI-H650
assay.explanation: relative viability (nuclei count vs DMSO), 5 days (fraction); higher = more cells survive
particulars: first compound 2.53 µM
Strictly below 0.6 in relative viability: t. Otherwise: f.

- C=C1C(=O)O[C@@H](CCCCCCCC)[C@@H]1C(=O)O [C-75] + Cc1nc(NC(=O)N2CCC[C@H]2C(N)=O)sc1-c1ccnc(C(C)(C)C(F)(F)F)c1 [Alpelisib] (partner 2 µM): f
- C=C1C(=O)O[C@@H](CCCCCCCC)[C@@H]1C(=O)O [C-75] + CC(C)C[C@H](NC(=O)[C@H](Cc1ccccc1)NC(=O)c1cnccn1)B(O)O [Bortezomib] (partner 0.002 µM): f
- Oc1nc(-c2ccc(C(F)(F)F)cc2)nc2c1CSCC2 [XAV939] + C[C@@H](Oc1cc(-c2cnn(C3CCNCC3)c2)cnc1N)c1c(Cl)ccc(F)c1Cl [Crizotinib] (partner 1 µM): t
- Oc1nc(-c2ccc(C(F)(F)F)cc2)nc2c1CSCC2 [XAV939] + COc1cc2c(Oc3ccc(NC(=O)C4(C(=O)Nc5ccc(F)cc5)CC4)cc3F)ccnc2cc1OCCCN1CCOCC1 [Foretinib] (partner 0.25 µM): f
- C=C1C(=O)O[C@@H](CCCCCCCC)[C@@H]1C(=O)O [C-75] + Cc1nc(Nc2ncc(C(=O)Nc3c(C)cccc3Cl)s2)cc(N2CCN(CCO)CC2)n1 [Dasatinib] (partner 0.075 µM): t
- Oc1nc(-c2ccc(C(F)(F)F)cc2)nc2c1CSCC2 [XAV939] + O=C(CCCCCCC(=O)Nc1ccccc1)NO [Vorinostat] (partner 1 µM): t

is_below(relative viability, 0.6) for C=C1C(=O)O[C@@H](CCCCCCCC)[C@@H]1C(=O)O [C-75] + COc1cccc2cc(-c3nc([C@H]4CC[C@H](C(=O)O)CC4)n4ncnc(N)c34)[nH]c12 [OSI-027] (partner 0.5 µM) ?
t

Given C=C1C(=O)O[C@@H](CCCCCCCC)[C@@H]1C(=O)O [C-75] + O=C(CCCCCCC(=O)Nc1ccccc1)NO [Vorinostat] (partner 1 µM) , is recorded relative viability strictly lower than 0.6?
t

Problem: For the molecule Oc1nc(-c2ccc(C(F)(F)F)cc2)nc2c1CSCC2 [XAV939] + Nc1ncn([C@H]2C[C@H](O)[C@@H](CO)O2)c(=O)n1 [Decitabine] (partner 2 µM) , is relative viability under 0.6?
t
